Test system: ACHN
ASSAY DETAILS: NCI tumour cell line growth inhibition, 48 h
Active and inactive are the calls of the source. Cut-off read from the data, not from the text of the source: active = GI50 up to about 1.1 µM and inactive = higher.
Classes used: active, inactive

INSERT INTO measurements (compound, class) VALUES
  ('CN(C)C(=S)S [SODIUM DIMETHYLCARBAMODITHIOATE]', 'inactive'),
  ('C/C(=N\NC(=S)NC1CCCC1)c1ccccn1', 'active'),
  ('COCOc1cc(OC)c(Br)cc1C/C(=N/O)C(=O)OC', 'inactive'),
  ('NC(N)=NC(P(=O)(O)O)P(=O)(O)O', 'inactive'),
  ('CCOC(=O)N1c2ccccc2C(C)=CC(C)C1C (stereo unspecified)', 'inactive'),
  ('COc1cc(NC(C)CCCN)c2nccc(C)c2c1 (stereo unspecified)', 'inactive');

====

Tested on: SK-MEL-2
ASSAY DETAILS: NCI tumour cell line growth inhibition, 48 h
Active and inactive are the calls of the source. Cut-off read from the data, not from the text of the source: active = GI50 up to about 1.1 µM and inactive = higher.
Classes used: 1 = active, 0 = inactive

INSERT INTO assay_data (molecule, assay_system, class) VALUES
  ('O=C(CCc1cccc(O)c1)NCCc1cccc(O)c1', 'SK-MEL-2', 0),
  ('O=c1nc(N2CCCCC2)sc2[nH]c3ccccc3c12', 'SK-MEL-2', 0),
  ('Cc1cc(C)nc(NS(=O)(=O)c2ccc(Nc3c4ccccc4nc4c(C(=O)NNCCO)cccc34)cc2)n1', 'SK-MEL-2', 0),
  ('O=C(NCCC1CNc2ccccc21)OCc1ccccc1 (configuration not stated)', 'SK-MEL-2', 0),
  ('CCOC(=O)C(NC(=O)c1ccccc1)(Nc1ccc(S(=O)(=O)Nc2nc(C)cc(C)n2)cc1)C(F)(F)F (configuration not stated)', 'SK-MEL-2', 0),
  ('Cc1nnc2sc(-c3ccc(-c4ccccc4Cl)o3)nn12', 'SK-MEL-2', 0),
  ('COC(=O)/C(C#N)=C1\CCC(O)N1 (configuration not stated)', 'SK-MEL-2', 0),
  ('Cc1ccc2c(c1)c(=O)c1c(NCCN(C)C)ccc3nnn2c31', 'SK-MEL-2', 0),
  ('O=S(O)CCCCCSSSCCCCCS(=O)O', 'SK-MEL-2', 0),
  ('CCOC(=O)N1c2ccccc2C(C)=CC(C)C1C (configuration not stated)', 'SK-MEL-2', 0),
  ('COC(=O)C1=C(OC)C(=P2(c3ccccc3)CC(c3ccccc3)=C2c2ccccc2)C(C(=O)OC)=C1C(=O)OC (configuration not stated)', 'SK-MEL-2', 0),
  ('OCCN(CCO)c1ccc2c(C(F)(F)F)cc(C(F)(F)F)nc2n1', 'SK-MEL-2', 0),
  ('CCCCCCCCCCCCCCCCCCOP(=O)([O-])OCC[N+](C)(C)C', 'SK-MEL-2', 1),
  ('O=C1Nc2ccccc2/C1=N\c1cccc2ncccc12', 'SK-MEL-2', 0),
  ('O=C(O)/C=C/c1ccc2c(c1)CC1(Cc3ccccc3C1)C2', 'SK-MEL-2', 0),
  ('Clc1ncc(Cl)c(Cl)n1', 'SK-MEL-2', 0),
  ('CCCCCCCCCCCCCCCCCCNc1ccn(C2OC(COP(=O)(O)OCC3OC(n4cc(F)c(NCCCCCCCCCCCCCCCCCC)nc4=O)CC3O)C(O)C2O)c(=O)n1 (configuration not stated)', 'SK-MEL-2', 0),
  ('Cc1c2c(ccc3ccccc32)c[n+]2ccccc12', 'SK-MEL-2', 0),
  ('COC(=O)c1c(O)ccc2c1c1c(n2Cc2ccc(OC)cc2)C(=O)c2ccccc2C1=O', 'SK-MEL-2', 0),
  ('CC(=O)C1=C(N=[N+]=[N-])c2cccc3cccc(c23)C1=O', 'SK-MEL-2', 0),
  ('C1COCCN1.CN(C)c1ccc(-c2c(C#N)c(N)nc(S)c2C#N)cc1', 'SK-MEL-2', 0),
  ('O=C1C=C(O)C(=Cc2c(O)cc(O)cc2O)C(O)=C1', 'SK-MEL-2', 0);
